Origin of values: PubChem BioAssay AID1259417

# Method Notes: M. tuberculosis growth inhibition, HTS (AID 1259417);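 note: bacteria grown with compound for 5 days at 37 °C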
# Condition Parameters: M. tuberculosis growth inhibition; stronger effect = higher value; concentration not given here
The whole screen tested about 1,100 compounds, of which about 760 (69%) were called active. The set was probably picked from earlier hits. Some of the results follow.
Quantity Name: inhibition (%)
Provide the reading as a plain figure in %.

smiles_repr=O=C(Nc1nnc(-c2ccc(Cl)s2)o1)C1CCCCC1 reported=59.3
smiles_repr=Nc1ccccc1NCCOc1ccccc1 reported=98.7
smiles_repr=NC(=O)c1c(NC(=O)c2cccc(F)c2)sc2c1CCC2 reported=-14.1

**Query** GET /values?readout=inhibition&item= Cc1ccc(-c2nnc(NC(=O)C3CC3)o2)c(C)c1
**Result** 76.4
